Just for reference, patent US20250114463A1 is where these values come from.

// in vitro Activity Compared to Native Peptide (%), vs GLP-1 lookup, one value per entry
biological target: human GLP-1 receptor (human, UniProt P43220 24-463); test: cell-based or functional assay
Bridges are numbered along the chain shown (N, C = ends). Where no end group is shown, it is not given here. [ ]: non-standard residue; d: D form. The star is where a group is joined. Acetyl(2-(4-imidazolyl)) = O=C(Cc1c[nH]cn1)*; Aib = CC(C)(N)C(=O)O

[Acetyl(2-(4-imidazolyl))][Aib]QGTFTSDYSKYLDEKRQKEFVQWLLNTKC (bridge 16-20; not fully specified (C-terminus)) [triple agonist of SEQ ID NO: 88]
9.6%
HGQGTFTSDCSKYLDGQRAQDFVNWLLAGGPSSGAPPPS (not fully specified (C-terminus)) [triple agonist of SEQ ID NO: 48]
1.5%
Y[Aib]QGTFTSDYSKALDEKAAKEFVNWLLDHHPSSGQPPPSC (bridge 16-20; not fully specified (C-terminus)) [triple agonist of SEQ ID NO: 98]
28.1%
H[Aib]QGTFTSDYSKYLDEKACKDFVQWLLDGGPSSGAPPPS (bridge 16-20; not fully specified (C-terminus)) [triple agonist of SEQ ID NO: 32]
151%

Sample H[Aib]QGTFTSDYSIAMDEIHQKDFVNWLLAQC (bridge 16-20; not fully specified (C-terminus)) [triple agonist of SEQ ID NO: 55] — what was its in vitro Activity Compared to Native Peptide (%), vs GLP-1?
27.1%

Sample H[Aib]QGTFTSDYSKYLDEKRQKEFVQWLLDTKC (bridge 16-20; not fully specified (C-terminus)) [triple agonist of SEQ ID NO: 78] — what was its in vitro Activity Compared to Native Peptide (%), vs GLP-1?
51%

Sample [Acetyl(2-(4-imidazolyl))][Aib]QGTFTSDYSKYLDEKRQKEFVNWLLAQC (bridge 16-20; not fully specified (C-terminus)) [triple agonist of SEQ ID NO: 86] — what was its in vitro Activity Compared to Native Peptide (%), vs GLP-1?
28.4%

Sample H[Aib]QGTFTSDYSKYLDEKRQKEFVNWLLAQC (bridge 16-20; not fully specified (C-terminus)) [triple agonist of SEQ ID NO: 56] — what was its in vitro Activity Compared to Native Peptide (%), vs GLP-1?
57.9%

Sample [Acetyl(2-(4-imidazolyl))]GEGTFISDLSKYMDEQAVQLFVEWLMAGGPSSGAPPPSHG-NH2 [triple agonist of SEQ ID NO: 12] — what was its in vitro Activity Compared to Native Peptide (%), vs GLP-1?
0.4%
